The origin of these recorded values is paper PMC5082600.

Can you tell me pEC50 for the items I'm about to list?
experiment: DPPH free radical scavenging assay; conditions: DPPH 150 μM in MeOH, 30 min, room temperature, absorbance at 490 nm; vitamin C as positive control
Worth noting: pEC50 values are minus log10 of concentrations stated in mol/L.

Query: Tell me the measured pEC50 of CC(C)c1cc2ccc3c(c2o1)C(=O)O[C@H](C)C3 , please.
Response: 3.89

Query: So what's the measured pEC50 for this one? CC(C)=C1Oc2c(ccc3cc(C)oc(=O)c23)C1=O
Response: 3.90

Query: Which pEC50 reading was recorded for the compound O=C1O[C@H]([C@@H](O)CO)C(O)=C1O [vitamin C, reference compound] ?
Response: 4.46
